# Test system: NCI-H226
# experimentalDetails: NCI tumour cell line growth inhibition, 48 h
Calls of active or inactive are those of the source. Rule as the data show it: active = GI50 up to about 1.1 µM and inactive = higher.
readout: GI50

A selection of reference data follows.
                                   molecule  readout           assayvalue
0       Nc1cc(CO)cc(Nc2c3ccccc3nc3occc23)c1     GI50   29.1 µM (inactive)
1  Cc1cccc(C(C)C)c1NC(=O)/C(Cc1c([N+](=O)[O-])cccc1[N+](=O)[O-])=N/NC(=O)CC#N     GI50  > 100 µM (inactive)
2  CN1CCN(Cn2nc(-c3ccccc3)n(/N=C/c3ccc(-c4ccc(Cl)cc4Cl)o3)c2=S)CC1     GI50     20 µM (inactive)

Endpoint output: GI50 of COc1cc(/C=C2\CCC/C(=C\c3cc(OC)c(O)c(OC)c3)C2=O)cc(OC)c1O . Value?
10.4 µM (inactive)

Endpoint output: GI50 of Cc1ccc(S(=O)(=O)C(CC(NC=O)S(=O)(=O)c2ccc(C)cc2)NC=O)cc1 (stereo not given) . Value?
> 100 µM (inactive)

====

# Test system: MDA-N
# experimentalDetails: NCI tumour cell line growth inhibition, 48 h
Calls of active or inactive are those of the source. No stated cut-off is given here; in the data, active = GI50 up to about 1.1 µM and inactive = higher.
Would you mind answering with one of these outcomes? 1.0 (active), 0.0 (inactive)

compound	targetOfAssay	assignedCategory
CC(=O)NC1C(OC(C)C(=O)NC(C)C(=O)NC(CCC(=O)NCCCCCNc2ccc([N+](=O)[O-])c3[nH]c4ccccc4c(=O)c23)C(N)=O)C(O)C(CO)OC1(C)OCc1ccccc1 (stereo not given)	MDA-N	0.0
OCC(O)COCn1cc(Cn2ncc3c(NCc4ccccc4)ncnc32)nn1 (stereo not given)	MDA-N	0.0

Answer briefly: the call reported for CC12c3c4cc(Br)cc3Oc3cc(Br)cc(c31)Oc1cc(Br)cc(c12)O4 in this assay.
0.0

====

# Tested on: M14
# experimentalDetails: NCI tumour cell line growth inhibition, 48 h
Active and inactive are the calls of the source. No stated cut-off is given here; in the data, active = GI50 up to about 1.1 µM and inactive = higher.
readout: GI50

>>> print(df.to_string())
                                   molecule           assayvalue
0  CC1CC/C(=C\c2ccc(Cl)cc2)C(=O)/C1=C\c1ccc(Cl)cc1 (configuration not stated)     24 µM (inactive)
1  O=C(c1nc2ccc(Cl)cc2nc1O)C(O)c1ccccc1 (configuration not stated)  > 100 µM (inactive)
2  COC(=O)C1Cc2c(C)cccc2C1=O (configuration not stated)  > 100 µM (inactive)
3         Nn1c(S)nnc1N/N=C1/C(=O)Nc2ccccc21   62.1 µM (inactive)

Endpoint output: GI50 of c1cncc(C2c3[nH]c4ccccc4c3CCN2CCN2CCCCC2)c1 (configuration not stated) . Value?
16.1 µM (inactive)

Endpoint output: GI50 of COC(=O)c1nc(-c2ccc(Cl)c(Cl)c2)nc2ccccc12 . Value?
> 24.1 µM (inactive)

Endpoint output: GI50 of N#CCCN(CCC#N)c1ccc(/C=C2\N=C(c3ccccc3)N(NC(=O)c3ccncc3)C2=O)cc1 . Value?
> 100 µM (inactive)

Endpoint output: GI50 of O=c1[nH][nH]c(=O)[nH]1 . Value?
> 100 µM (inactive)

Endpoint output: GI50 of CN1CC2=C(OC(N)=C(C#N)C2c2cccs2)/C(=C/c2cccs2)C1 (configuration not stated) . Value?
13.1 µM (inactive)

Endpoint output: GI50 of O/N=C(/CC(O)(C(F)(F)F)C(F)(F)F)c1ccccc1 . Value?
> 10 µM (inactive)

Endpoint output: GI50 of CC(C)=CCC[C@@H](C)[C@H]1CC[C@@]2(C)[C@@H]3CC[C@H]4C(C)(C)[C@@H](O)CC[C@@]45C[C@@]35CC[C@]12C . Value?
41 µM (inactive)

Endpoint output: GI50 of COc1ccc(N2C(=O)C3CC(c4ccc(C)cc4)c4c([nH]c5ccccc45)C3C2=O)cc1 (configuration not stated) . Value?
33.8 µM (inactive)

Endpoint output: GI50 of CCN(CC)c1ccc(C2NC(=O)c3ccccc3N2)cc1 (configuration not stated) . Value?
2.93 µM (inactive)

Endpoint output: GI50 of CSc1nc(Cl)c2c(n1)Sc1nc3ccccc3n1N=C2 . Value?
21 µM (inactive)

Endpoint output: GI50 of CC(C)(C)OC(=O)NC(CCCCNC(=O)OCc1ccccc1)C(=O)NC(CCCCNC(=O)OCc1ccccc1)C(=O)ON1C(=O)CCC1=O (configuration not stated) . Value?
> 100 µM (inactive)

Endpoint output: GI50 of CCOC(=O)c1cc(C2CCN(Cc3ccccc3)C2=S)c(C(=O)C=[N+]=[N-])[nH]1 (configuration not stated) . Value?
20.1 µM (inactive)

Endpoint output: GI50 of O=C(c1nc2ccc(Cl)cc2[nH]c1=O)C(O)c1cccc([N+](=O)[O-])c1 (configuration not stated) . Value?
> 100 µM (inactive)

Endpoint output: GI50 of C=CCN(c1cc(OCc2ccccc2)c2c(c1)c(C)cn2S(=O)(=O)c1ccccc1)S(C)(=O)=O . Value?
> 100 µM (inactive)

Endpoint output: GI50 of Cn1ccnc1Sc1ccc(/C=N/NC(=O)c2ccccc2[N+](=O)[O-])cc1[N+](=O)[O-] . Value?
> 100 µM (inactive)

Endpoint output: GI50 of CCCCCCCCCCCCCCCCNc1nc(=O)n(C2OC(C)C(O)C2O)cc1F (configuration not stated) . Value?
17.2 µM (inactive)

Endpoint output: GI50 of Cc1ccccc1C1OC(=O)c2ccccc21 (configuration not stated) . Value?
> 100 µM (inactive)

Endpoint output: GI50 of CCCNC(=O)N(C)C(=O)N1N=C(c2ccccc2)C1c1ccccc1 (configuration not stated) . Value?
> 100 µM (inactive)
